Data origin: PubChem BioAssay

Item-by-item account of composite z-score
molecular target: Epidermal growth factor receptor (Homo sapiens) (UniProt P00533); assay: EGFR binders on small-molecule microarrays, primary screen, biochemical, small-molecule microarray, 635 nm fluorescence (AID 1104); conditions: EGFR binding, higher = more signal;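 also: score merges 667 nm emission intensity with spot signal to noise over triplicate slides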
Sequence (P00533 whole entry, looked up): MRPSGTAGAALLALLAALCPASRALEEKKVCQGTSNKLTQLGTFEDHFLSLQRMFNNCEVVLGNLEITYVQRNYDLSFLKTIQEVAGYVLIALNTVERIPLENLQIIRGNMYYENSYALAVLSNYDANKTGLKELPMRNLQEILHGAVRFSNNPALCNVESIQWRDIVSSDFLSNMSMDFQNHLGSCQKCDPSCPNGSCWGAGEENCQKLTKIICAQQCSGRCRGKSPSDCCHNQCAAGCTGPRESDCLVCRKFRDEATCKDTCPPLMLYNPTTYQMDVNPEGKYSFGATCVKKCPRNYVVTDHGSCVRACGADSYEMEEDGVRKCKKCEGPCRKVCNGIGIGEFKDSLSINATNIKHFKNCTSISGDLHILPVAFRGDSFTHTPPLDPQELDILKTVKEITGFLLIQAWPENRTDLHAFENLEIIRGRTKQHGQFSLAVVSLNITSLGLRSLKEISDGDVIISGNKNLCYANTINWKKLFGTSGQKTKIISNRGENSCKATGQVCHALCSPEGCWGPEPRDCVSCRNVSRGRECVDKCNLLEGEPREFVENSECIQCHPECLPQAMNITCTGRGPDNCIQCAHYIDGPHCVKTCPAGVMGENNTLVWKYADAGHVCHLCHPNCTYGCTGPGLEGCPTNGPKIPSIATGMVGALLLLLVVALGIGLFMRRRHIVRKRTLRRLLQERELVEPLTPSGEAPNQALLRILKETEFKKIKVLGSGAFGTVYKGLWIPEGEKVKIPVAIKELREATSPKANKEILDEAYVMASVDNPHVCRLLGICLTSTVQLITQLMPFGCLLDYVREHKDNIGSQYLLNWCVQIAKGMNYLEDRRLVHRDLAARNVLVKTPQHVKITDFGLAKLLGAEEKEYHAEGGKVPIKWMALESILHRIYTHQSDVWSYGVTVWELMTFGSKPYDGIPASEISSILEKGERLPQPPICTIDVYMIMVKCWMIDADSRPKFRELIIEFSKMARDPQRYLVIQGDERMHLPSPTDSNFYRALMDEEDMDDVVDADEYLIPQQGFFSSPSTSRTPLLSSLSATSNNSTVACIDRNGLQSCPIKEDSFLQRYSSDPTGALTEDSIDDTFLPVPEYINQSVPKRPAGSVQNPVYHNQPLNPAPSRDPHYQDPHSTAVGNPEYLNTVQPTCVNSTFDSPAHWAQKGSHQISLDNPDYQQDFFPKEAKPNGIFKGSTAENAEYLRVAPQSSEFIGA
Form: value (number only, do not type unit).

Sample answers from the record:
| compound | assayed_target | composite z-score |
| --- | --- | --- |
| COCCCNC(=O)[C@@]1(c2ccc([N+](=O)[O-])cc2)CC(=O)N(C2CCCCC2)[C@@H]1c1ccc(CO)cc1I | Epidermal growth factor receptor (Homo sapiens) (UniProt P00533) | -0.323 |
| COC(=O)[C@@]1(Cc2ccc(OC)cc2)[C@H]2c3cc(C(=O)N(C)C)n(Cc4c(CO)[nH]cc(C)c4=O)c3C[C@H]2CN1C(=O)c1ccccc1 | Epidermal growth factor receptor (Homo sapiens) (UniProt P00533) | 0.0854 |

composite z-score measured on COc1ccc(C(=O)Nc2ccc(CN3C(=O)[C@@]4(O[C@@H](CC(=O)N(CCO)Cc5ccccc5)[C@H]([Si](C)(C)c5ccc(OC)cc5)[C@H]4C)c4ccccc43)cc2)cc1 = 0.7
